molecular target: Cytochrome P450 3A4 (Homo sapiens); assay: Cytochrome panel assay with activity outcomes; conditions: recombinant CYP, pro-luciferin dealkylation, luminescence, p450-cyp3a4; series mostly up to 57.1 µM
Hit rate of the full screen: of about 16,000 compounds, about 5,100 (32%) were called active. Not shown: some 25% with an inconclusive outcome. This is one part of the list.
measured.attribute: AC50

Known AC50 results, listed for orientation:
Cc1cccc(-n2ncc3c(Nc4c(C)n(C)n(-c5ccccc5)c4=O)ncnc32)c1    inactive
CC(/C=N\NC(=O)Cn1c(C)nc2ccccc21)=C\c1ccccc1    inactive
CCC/C=C(\CCC)C(NS(=O)(=O)c1cccc2cccnc12)c1ccc(C(=O)OC)cc1 (stereo not drawn)    5.01 µM (active)
CC(=O)Oc1cc(C(F)(F)F)ccc1C(=O)O    inactive

# map each compound to its AC50
1. O=C(COc1ccc(Cl)cc1Cl)N/N=C/CCc1ccccc1
2. Cc1cc(=O)oc(C)c1C(=O)N1CCCCC1
3. C[C@H](Nc1ncnc2sc3c(c12)CCC3)C(=O)O
4. CC(C)Nc1nc(Oc2ccc(Cl)cc2)cc(C(F)(F)F)n1
5. Cn1cc(C(=O)OCC2CCN(CCNS(C)(=O)=O)CC2)c2ccccc21
6. CC1(C)Cc2c(ccc3ccccc23)C(=O)N1

11.2 µM (active)
inactive
inactive
inactive
inactive
inactive
